# credit: patent US20240084003A1

TGT: T1, human CD22, endogenous on Raji cells (human, UniProt P20273 20-847)
T1 construct: whole, on cells; Endogenous protein of the Raji cell line
T1 sequence (looked up): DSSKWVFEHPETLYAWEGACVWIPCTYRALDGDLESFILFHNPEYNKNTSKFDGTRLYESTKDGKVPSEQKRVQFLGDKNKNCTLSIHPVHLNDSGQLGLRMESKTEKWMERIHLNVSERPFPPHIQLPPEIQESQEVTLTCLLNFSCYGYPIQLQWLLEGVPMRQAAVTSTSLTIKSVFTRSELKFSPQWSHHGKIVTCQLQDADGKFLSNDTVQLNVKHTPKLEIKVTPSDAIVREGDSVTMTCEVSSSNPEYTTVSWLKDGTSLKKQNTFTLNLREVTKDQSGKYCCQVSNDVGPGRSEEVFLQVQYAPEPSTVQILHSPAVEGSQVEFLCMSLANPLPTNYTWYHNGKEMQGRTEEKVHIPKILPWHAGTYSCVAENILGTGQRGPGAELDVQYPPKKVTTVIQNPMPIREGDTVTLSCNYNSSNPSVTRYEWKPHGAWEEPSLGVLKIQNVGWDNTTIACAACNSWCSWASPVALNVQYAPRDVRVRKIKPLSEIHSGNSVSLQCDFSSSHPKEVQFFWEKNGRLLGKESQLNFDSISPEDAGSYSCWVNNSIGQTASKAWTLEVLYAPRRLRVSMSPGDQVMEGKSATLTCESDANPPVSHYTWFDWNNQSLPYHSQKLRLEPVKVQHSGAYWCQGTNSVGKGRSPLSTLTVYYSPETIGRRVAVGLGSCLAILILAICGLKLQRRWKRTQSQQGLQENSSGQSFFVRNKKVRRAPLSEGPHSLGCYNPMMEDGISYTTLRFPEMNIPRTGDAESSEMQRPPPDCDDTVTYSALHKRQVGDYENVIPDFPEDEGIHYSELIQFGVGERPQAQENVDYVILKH
ASSAY INFO: FACS, Raji cells
Procedure: The required cells were scale-up cultured in a T-75 cell culture flask to the logarithmic growth phase. For the adherent cell CHO-K1, the medium was aspirated, the cells were washed 2 times with PBS buffer, and then digested with trypsin. After the digestion was terminated, the cells were washed 2 times with PBS buffer. […] Data analysis was performed by software (CellQuest) to obtain the mean fluorescence density (MFI)of the cells. […]
PROPERTY NAME: Maximum mean fluorescence intensity

BINDER	RECORDED RESULT
F1.250.16 human-murine chimeric antibody (antibody, human IgG1, kappa, V domains shown, Chimeric, human IgG1 / kappa; VL tied by name) VH: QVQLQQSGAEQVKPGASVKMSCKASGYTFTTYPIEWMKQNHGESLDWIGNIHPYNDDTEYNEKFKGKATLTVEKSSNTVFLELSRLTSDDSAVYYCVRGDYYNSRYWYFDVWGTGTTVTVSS VL: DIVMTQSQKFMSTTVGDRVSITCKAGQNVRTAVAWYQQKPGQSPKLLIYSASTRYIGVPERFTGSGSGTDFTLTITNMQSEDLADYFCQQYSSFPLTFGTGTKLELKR	25000 MFI
F1.231.15 human-murine chimeric antibody (antibody, human IgG1, V domains shown, Chimeric: murine V regions on human IgG1 heavy constant region and kappa light constant region) VH: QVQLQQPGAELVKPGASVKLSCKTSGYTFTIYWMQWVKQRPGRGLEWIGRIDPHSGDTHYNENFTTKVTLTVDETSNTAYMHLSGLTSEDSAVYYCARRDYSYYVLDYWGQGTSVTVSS VL: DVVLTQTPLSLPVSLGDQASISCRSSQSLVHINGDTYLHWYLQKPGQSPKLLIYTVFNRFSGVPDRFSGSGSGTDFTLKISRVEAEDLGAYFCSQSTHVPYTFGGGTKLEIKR	28800 MFI
F1.280.1 human-murine chimeric antibody (antibody, human IgG1, kappa, V domains shown, Chimeric, human IgG1 / kappa) VH: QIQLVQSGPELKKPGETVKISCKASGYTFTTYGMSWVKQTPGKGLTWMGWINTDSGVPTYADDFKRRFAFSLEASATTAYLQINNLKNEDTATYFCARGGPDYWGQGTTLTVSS VL: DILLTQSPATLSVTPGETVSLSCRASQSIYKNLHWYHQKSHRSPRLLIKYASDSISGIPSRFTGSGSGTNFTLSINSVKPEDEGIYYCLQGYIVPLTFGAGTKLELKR	25000 MFI
F1.224.1 human-murine chimeric antibody (antibody, human IgG1, kappa, V domains shown, Chimeric, human IgG1 / kappa; VL tied by name) VH: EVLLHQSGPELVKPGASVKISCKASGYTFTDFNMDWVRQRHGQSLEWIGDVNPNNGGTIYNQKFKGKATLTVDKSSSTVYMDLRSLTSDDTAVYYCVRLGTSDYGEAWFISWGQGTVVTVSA VL: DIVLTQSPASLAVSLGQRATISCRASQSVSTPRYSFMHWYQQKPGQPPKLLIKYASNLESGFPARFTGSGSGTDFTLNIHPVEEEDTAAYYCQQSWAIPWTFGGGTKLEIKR	23600 MFI

Field: next binder
Query: Endpoint output: Maximum mean fluorescence intensity of F1.60.9 human-murine chimeric antibody (antibody, human IgG1, kappa, V domains shown, Chimeric, human IgG1 / kappa) VH: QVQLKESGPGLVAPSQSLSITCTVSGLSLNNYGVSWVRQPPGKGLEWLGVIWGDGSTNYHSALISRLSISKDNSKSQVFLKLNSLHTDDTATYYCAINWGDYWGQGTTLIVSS VL: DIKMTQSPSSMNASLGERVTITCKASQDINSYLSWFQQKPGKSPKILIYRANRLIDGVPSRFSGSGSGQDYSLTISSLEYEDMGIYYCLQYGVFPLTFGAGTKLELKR . Value?
Response: 25300 MFI
